Assay target: T1, cynomolgus monkey Nectin-4 (cynomolgus monkey, UniProt A0A2K5WES1 32-510)
T1 construct: whole, on cells; Transiently expressed on CHO-K1 cells; also called cynomolgus Nectin-4
T1 sequence: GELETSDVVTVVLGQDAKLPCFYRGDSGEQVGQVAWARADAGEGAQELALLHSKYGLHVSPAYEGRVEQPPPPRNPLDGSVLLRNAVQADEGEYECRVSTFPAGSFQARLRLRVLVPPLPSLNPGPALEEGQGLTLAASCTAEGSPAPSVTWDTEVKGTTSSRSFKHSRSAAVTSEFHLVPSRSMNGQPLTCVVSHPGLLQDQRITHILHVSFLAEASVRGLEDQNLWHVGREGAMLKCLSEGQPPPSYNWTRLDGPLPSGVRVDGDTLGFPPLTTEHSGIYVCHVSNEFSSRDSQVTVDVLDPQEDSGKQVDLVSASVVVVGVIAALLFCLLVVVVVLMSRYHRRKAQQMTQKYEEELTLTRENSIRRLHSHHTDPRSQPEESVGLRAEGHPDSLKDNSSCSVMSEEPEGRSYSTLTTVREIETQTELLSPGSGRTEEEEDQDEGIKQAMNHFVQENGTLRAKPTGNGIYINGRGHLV
Assay explanation: cell-based ELISA on CHO-K1 cells expressing cynomolgus monkey Nectin-4
Value kind: binding result

Answered cases to consult:
| Binder | binding result |
| --- | --- |
| LV1187 (VHH, Llama-derived anti-Nectin-4 VHH) VHH: EVQLVESGGGLVQAGGFLRLSCAASRSVFRINVMGWYRQAPGKQRELVAGITSGGSRRLADSVKGRFTISRDNAKNTVYLQMNSLKPEDTAVYYCFAEAVVGDEPYWGQGTQVTVSS | binds |
| LV1185 (VHH, Llama-derived anti-Nectin-4 VHH) VHH: EVQLVESGGGLVQAGGSLRLSCAASRSTFSLNIMGWYRQAPGKQREYVATITTGGSTNYADSVRGRFTISRDNAEDTVYLQMNSLKPEDTAVYYCTAELVRRGPTTYWGRGTQVTVSS | binds |
| LV1184 (VHH, Llama-derived anti-Nectin-4 VHH) VHH: EVQLVESGGGLVQAGGSLRLSCAASGSISSINLMGWFRQAPAKQRELVTSISPGGSVRYADSVKGRFTISRDVAKNTVDLQMNSLKPEDTAVYYCAAESERTYYFDSWGQGTQVTVSS | binds |
| LV1178 (VHH, Llama-derived anti-Nectin-4 VHH from phage display) VHH: EVQLVESGGALVQAGGSLRLSCSVSGLTASRLTMGWFRQAPGKEREFVARVYASGGLTDYADSVKGRFTISRDNAKNTVYLQMNSLEPEDTAVYYCVAGLWADMRTMTSTRGYWGQGTQVTVSS | binds |
| LV1186 (VHH, Llama-derived anti-Nectin-4 VHH) VHH: EVQLVESGGGLVQAGGSLRLSCAASRSTFSLNIMGWYRQAPGKQREYVATITSGGSTNYADSVRGRFTISRDNAENTVYLQMDSLKPEDTAVYYCTAELVRRGPTTYWGRGTQVTVSS | binds |

Lab note: each binder below needs its binding result filled in.
1. LV1183 (VHH, Llama-derived anti-Nectin-4 VHH) VHH: EVQLVESGGGLVQAGGSLRLSCAASGSIFDINLMGWYRQAPGKLRELVASITRGGSTWYVDSVKGRFIISRDSAKNTVYLQMNSLKPGDTAVYYCAAESIGSYTFDRWGQGTQVTVSS
2. LV1181 (VHH, Llama-derived anti-Nectin-4 VHH) VHH: EVQLVESGGGLVQAGGSLRLSCAASGSISSINLMGWHRQAPGKQRELVATITRGGSTNYADSVKGRFTISRDNGKNTVYLQMNSLKPEDTAAYYCVDVEPSGMGWRDYWGQGTQVTVSS

Outgoing:
1: binds; 2: binds
